Biological target: recombinant T. brucei APRT1 (Trypanosoma brucei brucei, UniProt Q57V32)
Sequence (Q57V32 entry or part of it): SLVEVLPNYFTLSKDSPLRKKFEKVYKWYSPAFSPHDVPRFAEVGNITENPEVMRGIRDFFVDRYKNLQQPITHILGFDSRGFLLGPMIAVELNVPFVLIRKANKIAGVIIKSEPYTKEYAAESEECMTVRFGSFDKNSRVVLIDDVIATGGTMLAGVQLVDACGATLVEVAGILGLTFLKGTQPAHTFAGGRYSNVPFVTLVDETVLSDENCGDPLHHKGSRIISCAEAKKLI
Test: Inhibition of recombinant APRT1, continuous spectrophotometric assay (adenine to AMP, 256 nm)
Assay type: biochemical
Conditions: recombinant APRT1 280 nM, 1 mM PRib-PP, 60 μM adenine, pH 8.4, 25 °C; read-out: APRT1 Ki
# Ki per entry

>>> reported("Nc1ncnc2c1ncn2CCN(CCOCCP(=O)(O)O)CCP(=O)(O)O [9g]")
"3.07 µM"
>>> reported("Nc1ncnc2c1ncn2CC(COCCP(=O)(O)O)OCCP(=O)(O)O (centres unmarked) [compound 20]")
"27.7 µM"
>>> reported("N#CCCN(CCn1cnc2c(N)ncnc21)CCP(=O)(O)O [9b]")
"> 30 µM"
>>> reported("Nc1ncnc2c1ncn2CCN(CCNCCO)CCP(=O)(O)O [9a]")
"4.92 µM"

Give the measured Ki of Nc1ncnc2c1ncn2CC(COCP(=O)(O)O)COCP(=O)(O)O [compound 22] .
5.15 µM

Give the measured Ki of Nc1ncnc2c1ncn2CCCSCP(=O)(O)O [3a] .
10.1 µM

Give the measured Ki of Nc1ncnc2c1ncn2CCSCCP(=O)(O)O [3b] .
> 30 µM

Give the measured Ki of Nc1ncnc2c1ncn2CCN(CCOCP(=O)(O)O)CCP(=O)(O)O [9d] .
3.88 µM

* * *

Target: recombinant T. brucei APRT1 (Trypanosoma brucei brucei)
Assay: Inhibition of recombinant APRT1, continuous spectrophotometric assay (adenine to AMP, 256 nm)
Assay type: biochemical
Settings: recombinant APRT1 280 nM, 1 mM PRib-PP, 60 μM adenine, pH 8.4, 25 °C; read-out: APRT1 Ki
pKi: −log10 of the molar value.
Observation type: pKi

>>> reported("Nc1ncnc2c1ncn2CCN(CCP(=O)(O)O)CCP(=O)(O)O")
"< 4.52"
>>> reported("Nc1ncnc2c1ncn2CCC[S+]([O-])CP(=O)(O)O (centres unmarked)")
"< 4.52"
>>> reported("Nc1ncnc2c1ncn2CCOC(CO)CP(=O)(O)O (centres unmarked)")
"< 4.52"
>>> reported("Nc1ncnc2c1ncn2CCN(CCN(CCP(=O)(O)O)CCP(=O)(O)O)CCP(=O)(O)O")
4.67

Consider the record given below.
Request - read-out pKi | tested on recombinant T. brucei APRT1 (Trypanosoma brucei brucei) | compound `Nc1ncnc2c1ncn2CCN(CCCC(=O)O)CCP(=O)(O)O`
< 4.52

* * *

# viability at 10 µM per entry
Assay: Cytotoxicity of the prodrug in human cells (CellTiter-Glo 2.0), NHDF
Assay type: cell-based
Details: human, normal human dermal fibroblasts (NHDF), NHDF
Express your answer in %, writing the number without its unit.

Solved entries (count: 3):
>>> reported("CCOC(=O)[C@H](Cc1ccccc1)NP(=O)(COCC(COCP(=O)(N[C@@H](Cc1ccccc1)C(=O)OCC)N[C@@H](Cc1ccccc1)C(=O)OCC)Cn1cnc2c(N)ncnc21)N[C@@H](Cc1ccccc1)C(=O)OCC [compound 25]")
90
>>> reported("CC(C)OC(=O)[C@H](Cc1ccccc1)NP(=O)(CSCCCn1cnc2c(N)ncnc21)N[C@@H](Cc1ccccc1)C(=O)OC(C)C [24a]")
89
>>> reported("CC(C)OC(=O)[C@H](Cc1ccccc1)NP(=O)(CCSCCn1cnc2c(N)ncnc21)N[C@@H](Cc1ccccc1)C(=O)OC(C)C [24b]")
89

Consider the record given below.
Give the measured viability at 10 µM of CCOC(=O)[C@H](Cc1ccccc1)NP(=O)(CCOCC(Cn1cnc2c(N)ncnc21)OCCP(=O)(N[C@@H](Cc1ccccc1)C(=O)OCC)N[C@@H](Cc1ccccc1)C(=O)OCC)N[C@@H](Cc1ccccc1)C(=O)OCC (stereo partly shown) [compound 26] .
88

FYI, the data here is from paper PMC8233378.
